target: SauIRS (isoleucyl-tRNA synthetase from Staphylococcus aureus) (Staphylococcus aureus, UniProt P41972); construct: made in house; host or cells: Escherichia coli M15; test: aaRS aminoacylation assay (ATP consumption), SauIRS; assay type: biochemical; settings: i.a. = inactive at a concentration below 50 uM
Sequence (P41972 whole entry): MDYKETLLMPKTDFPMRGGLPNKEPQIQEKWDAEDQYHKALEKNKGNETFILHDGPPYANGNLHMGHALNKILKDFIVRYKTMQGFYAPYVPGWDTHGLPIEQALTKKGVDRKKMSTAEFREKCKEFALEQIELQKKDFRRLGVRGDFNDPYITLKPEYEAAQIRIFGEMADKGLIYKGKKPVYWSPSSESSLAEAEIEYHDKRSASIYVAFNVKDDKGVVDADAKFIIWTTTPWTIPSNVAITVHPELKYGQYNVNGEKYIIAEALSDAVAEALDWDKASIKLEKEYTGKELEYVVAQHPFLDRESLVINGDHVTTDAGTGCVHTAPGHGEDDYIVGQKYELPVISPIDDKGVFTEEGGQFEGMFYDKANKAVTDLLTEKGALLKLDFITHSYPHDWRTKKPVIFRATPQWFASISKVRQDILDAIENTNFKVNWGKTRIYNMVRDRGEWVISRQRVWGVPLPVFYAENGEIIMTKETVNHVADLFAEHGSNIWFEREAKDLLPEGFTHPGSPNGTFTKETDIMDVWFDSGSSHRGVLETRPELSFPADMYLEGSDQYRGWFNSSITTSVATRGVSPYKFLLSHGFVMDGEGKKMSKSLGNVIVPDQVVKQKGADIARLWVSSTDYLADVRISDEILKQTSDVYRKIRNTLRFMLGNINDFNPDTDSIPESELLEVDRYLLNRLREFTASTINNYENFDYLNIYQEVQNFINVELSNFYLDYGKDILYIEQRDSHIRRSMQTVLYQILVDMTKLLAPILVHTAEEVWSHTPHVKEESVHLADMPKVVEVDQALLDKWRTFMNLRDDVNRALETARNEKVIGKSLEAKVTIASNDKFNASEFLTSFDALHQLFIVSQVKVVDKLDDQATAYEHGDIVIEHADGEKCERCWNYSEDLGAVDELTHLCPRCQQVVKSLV
Structures can show the parent of a compound that is named as a salt.
assay.endpoint: IC50 SauIRS

* CC[C@H](C)[C@H](N)C(=O)NS(=O)(=O)c1cccc(-c2cc(C)nc(N)n2)c1 | i.a.
* CC(C)C[C@H](N)C(=O)NS(=O)(=O)c1cccc2c(N(C)C)cccc12 [Compound 5.16, hydrochloride] | i.a
* CC(C)C[C@H](N)C(=O)NS(=O)(=O)c1cccc2c1CNCC2 | i.a
* CC(C)C[C@H](N)C(=O)NS(=O)(=O)c1cccc(-c2nc(N)nc3nc[nH]c23)c1 | i.a.

====

Counter-ions that a name gives are not always drawn.
assay.endpoint: melting point

* COc1ccc(S(=O)(=O)NC(=O)[C@@H](N)CC(C)C)c2ccccc12 | 253 to 255 °C

Input line: For the compound shown here, CC(C)C[C@H](N)C(=O)NS(=O)(=O)c1cccc(-c2ccncc2)c1 , give the reported melting point.
Output line: 151 °C (dec.)

Input line: For the compound shown here, CC(C)C[C@H](N)C(=O)NS(=O)(=O)c1cccc(-c2ccnc(N)c2)c1 , give the reported melting point.
Output line: 141 °C (dec.)

Input line: For the compound shown here, CC(C)C[C@H](N)C(=O)NS(=O)(=O)c1cccc2c1CNCC2 (as salt: trifluoroacetate) , give the reported melting point.
Output line: 90 to 92 °C

====

Items are presented alongside their recorded pIC50.
molecular target: EcoLRS (leucyl-tRNA synthetase from Escherichia coli) (Escherichia coli); construct: made in house; host or cells: Escherichia coli M15; experiment: aaRS aminoacylation assay (ATP consumption), EcoLRS; type: biochemical
Sequence (P07813 whole entry): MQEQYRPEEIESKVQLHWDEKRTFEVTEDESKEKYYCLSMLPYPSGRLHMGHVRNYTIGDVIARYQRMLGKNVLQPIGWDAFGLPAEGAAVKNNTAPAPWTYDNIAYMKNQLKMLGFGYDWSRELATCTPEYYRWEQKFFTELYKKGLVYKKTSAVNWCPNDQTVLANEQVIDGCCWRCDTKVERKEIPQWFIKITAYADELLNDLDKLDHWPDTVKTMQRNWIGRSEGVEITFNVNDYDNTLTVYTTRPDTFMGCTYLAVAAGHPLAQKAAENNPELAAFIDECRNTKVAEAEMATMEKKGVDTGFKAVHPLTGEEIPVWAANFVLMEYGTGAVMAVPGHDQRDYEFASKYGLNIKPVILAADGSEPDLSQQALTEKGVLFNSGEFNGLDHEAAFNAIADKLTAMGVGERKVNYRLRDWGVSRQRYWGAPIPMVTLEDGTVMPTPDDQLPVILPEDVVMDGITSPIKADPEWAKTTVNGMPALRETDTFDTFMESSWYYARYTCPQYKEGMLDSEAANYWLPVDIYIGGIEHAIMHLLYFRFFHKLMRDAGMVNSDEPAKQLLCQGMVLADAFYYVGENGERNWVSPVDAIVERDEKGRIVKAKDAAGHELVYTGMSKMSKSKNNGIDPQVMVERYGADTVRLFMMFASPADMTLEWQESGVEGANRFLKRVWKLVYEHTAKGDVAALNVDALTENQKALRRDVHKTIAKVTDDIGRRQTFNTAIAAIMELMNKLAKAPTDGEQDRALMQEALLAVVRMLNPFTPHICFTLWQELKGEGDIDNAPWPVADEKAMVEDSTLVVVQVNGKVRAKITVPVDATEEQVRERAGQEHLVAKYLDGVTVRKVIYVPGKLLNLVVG
# log scale: pIC50 equals minus log10 of the concentration in mol/L

Worked examples follow.
- CC(C)C[C@H](N)C(=O)NS(=O)(=O)c1cccc(-c2ccnc(Cl)n2)c1: 7.19
- CC(C)C[C@H](N)C(=O)NS(=O)(=O)c1cccc(-c2cc(N)ncn2)c1: 8.00
- CC(C)C[C@H](N)C(=O)NS(=O)(=O)c1cccc2cccnc12: 6.11

Input line: For the compound shown here, CC(C)C[C@H](N)C(=O)NS(=O)(=O)c1ccc(Oc2ccccc2)cc1 , give the reported pIC50.
Output line: 6.15

Input line: For the compound shown here, CC(C)C[C@H](N)C(=O)NS(=O)(=O)c1cccc(-c2ccnc(O)n2)c1 , give the reported pIC50.
Output line: 7.20

====

Biological target: SauLRS (leucyl-tRNA synthetase from Staphylococcus aureus) (Staphylococcus aureus)
Construct: made in house; host or cells: Escherichia coli M15
Sequence (Q2FXH2 1-805): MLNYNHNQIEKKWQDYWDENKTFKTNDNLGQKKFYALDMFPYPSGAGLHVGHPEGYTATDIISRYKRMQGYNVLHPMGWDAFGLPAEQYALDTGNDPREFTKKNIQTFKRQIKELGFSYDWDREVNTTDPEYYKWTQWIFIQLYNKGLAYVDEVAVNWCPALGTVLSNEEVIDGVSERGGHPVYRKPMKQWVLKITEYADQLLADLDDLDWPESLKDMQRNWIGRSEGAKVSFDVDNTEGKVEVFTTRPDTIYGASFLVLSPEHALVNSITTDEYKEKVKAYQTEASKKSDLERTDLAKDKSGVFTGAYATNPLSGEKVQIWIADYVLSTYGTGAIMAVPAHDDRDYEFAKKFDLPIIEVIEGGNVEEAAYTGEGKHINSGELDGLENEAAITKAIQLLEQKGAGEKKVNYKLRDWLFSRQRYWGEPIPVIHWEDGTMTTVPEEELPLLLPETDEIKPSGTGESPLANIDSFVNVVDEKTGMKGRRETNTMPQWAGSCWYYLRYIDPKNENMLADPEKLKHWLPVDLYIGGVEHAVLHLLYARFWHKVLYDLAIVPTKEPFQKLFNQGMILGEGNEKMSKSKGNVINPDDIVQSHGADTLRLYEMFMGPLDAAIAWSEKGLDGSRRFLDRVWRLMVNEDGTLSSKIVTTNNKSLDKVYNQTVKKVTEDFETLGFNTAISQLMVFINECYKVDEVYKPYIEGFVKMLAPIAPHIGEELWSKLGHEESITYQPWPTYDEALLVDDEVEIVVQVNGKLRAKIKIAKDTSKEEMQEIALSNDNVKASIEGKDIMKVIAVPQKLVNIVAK
Test: aaRS aminoacylation assay (ATP consumption), SauLRS
Format: biochemical
Settings: i.a. = inactive at a concentration below 50 uM; read-out: IC50 SauLRS
assay.endpoint: pIC50
# log scale: pIC50 equals minus log10 of the concentration in mol/L

* CC(C)C[C@H](N)C(=O)NS(=O)(=O)c1ccccc1-c1ccccc1 [Compound 5.3] | 4.83
* Cc1cc(-c2cccc(S(=O)(=O)NC(=O)[C@@H](N)CC(C)C)c2)ncn1 [Compound 5.39] | 5.70
* CC(C)C[C@H](N)C(=O)NS(=O)(=O)c1cccc(-c2ncnc(N)n2)c1 [Compound 5.48] | 6.28
* CC(C)C[C@H](N)C(=O)NS(=O)(=O)c1cccc(-c2cccc(N)n2)c1 [Compound 5.44] | 5.79

Input line: For the compound shown here, CC(C)C[C@H](N)C(=O)NS(=O)(=O)c1cccc2ccncc12 [Compound 5.21] , give the reported pIC50.
Output line: 5.47

Input line: For the compound shown here, CC(C)C[C@H](N)C(=O)NS(=O)(=O)c1cccc(-c2cc(N(C)C)nc(N)n2)c1 [Compound 5.28] , give the reported pIC50.
Output line: 5.32

Input line: For the compound shown here, CC(C)C[C@H](N)C(=O)NS(=O)(=O)c1cccc(Cl)c1 [Compound 5.4] , give the reported pIC50.
Output line: 6.04

Input line: For the compound shown here, CSc1cc(-c2cccc(S(=O)(=O)NC(=O)[C@@H](N)CC(C)C)c2)nc(N)n1 [Compound 5.29] , give the reported pIC50.
Output line: 5.92

Numbers sourced from patent US11072581B2.
